Test system: Candida albicans
protocolDetails: Antimicrobial activity against Candida albicans isolate after 24 to 48 hrs after 24 hrs by disk diffusion method
Assay type: functional
measurementName: MIC (µg/mL)

- CCS(=O)(=O)c1ccc2oc(-c3ccc(C)cc3)nc2c1: 31.2
- CCS(=O)(=O)c1ccc2oc(Cc3ccc(F)cc3)nc2c1: 31.2
- CCS(=O)(=O)c1ccc2oc(-c3ccc([N+](=O)[O-])cc3)nc2c1: 62.5
- CCS(=O)(=O)c1ccc2oc(-c3ccc(F)cc3)nc2c1: 31.2
- CCS(=O)(=O)c1ccc2oc(Cc3ccc(Br)cc3)nc2c1: 62.5
- CCS(=O)(=O)c1ccc2oc(Cc3ccccc3Cl)nc2c1: 62.5
- CCS(=O)(=O)c1ccc2oc(-c3ccc(C(C)(C)C)cc3)nc2c1: 31.2
- CCS(=O)(=O)c1ccc2oc(Cc3ccc(Cl)cc3)nc2c1: 62.5
- CCS(=O)(=O)c1ccc2oc(-c3ccccc3)nc2c1: 31.2
- CCS(=O)(=O)c1ccc2oc(-c3cc(Br)ccc3Cl)nc2c1: 62.5
- CCS(=O)(=O)c1ccc2oc(CCc3ccccc3)nc2c1: 62.5
